# target_under_test: ACAT (Oryctolagus cuniculus)
# Sequence (A0A5F9CPP4 1-555): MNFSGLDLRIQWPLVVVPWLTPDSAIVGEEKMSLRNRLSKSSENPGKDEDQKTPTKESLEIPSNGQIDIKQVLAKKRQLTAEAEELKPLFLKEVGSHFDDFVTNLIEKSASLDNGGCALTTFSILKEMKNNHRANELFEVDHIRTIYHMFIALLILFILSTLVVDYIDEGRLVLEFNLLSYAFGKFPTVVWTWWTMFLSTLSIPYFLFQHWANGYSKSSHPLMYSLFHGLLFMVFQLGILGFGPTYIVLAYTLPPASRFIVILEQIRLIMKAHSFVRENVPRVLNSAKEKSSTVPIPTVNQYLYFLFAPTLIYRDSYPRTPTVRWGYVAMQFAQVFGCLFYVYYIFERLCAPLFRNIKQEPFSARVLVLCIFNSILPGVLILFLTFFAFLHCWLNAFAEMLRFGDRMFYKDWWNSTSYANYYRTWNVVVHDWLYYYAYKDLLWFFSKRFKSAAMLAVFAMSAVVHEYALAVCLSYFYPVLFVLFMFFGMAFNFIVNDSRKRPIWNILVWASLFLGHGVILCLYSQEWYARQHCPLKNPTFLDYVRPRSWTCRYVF
quantity_name: IC50 (nM)
Numbers only, in nM.

CCCCNC(=O)Nc1c(C)cccc1OCCCn1cnc(-c2ccccc2)c1C(C)O (centres unmarked) :: 850

Ask: Request: IC50, test system ACAT (Oryctolagus cuniculus), entry CCc1c(-c2ccccc2)ncn1CCCOc1cccc(C)c1NC(=O)NCCC(C)O (centres unmarked)
Result: 1000
